target: T1, Proleukin® (aldesleukin) (human, UniProt P60568 21-153, limits assumed); assay: ELISA, coated Proleukin, HEK293F supernatant 1:2
T1 construct: Variant of human wt IL-2 with C145S (C125S on mature IL-2); also called IL-2 (Proleukin®); human IL-2 (Proleukin)
T1 sequence (P60568 other isoform, or with tags, fused parts or gaps limits assumed): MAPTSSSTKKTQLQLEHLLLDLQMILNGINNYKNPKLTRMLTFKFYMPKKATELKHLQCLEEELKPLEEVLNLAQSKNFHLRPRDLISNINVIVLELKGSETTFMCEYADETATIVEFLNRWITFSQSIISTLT
measurement name: ELISA value (wash 3x every hour for 12 HRS) (luminescence signal)
All answers are understood in luminescence signal, so give the number only.

-- ask Can you look up the measured ELISA value (wash 3x every hour for 12 HRS) of 104348_VH5D98E_VK1D28Q (antibody, human IgG1, kappa, N297A, V domains shown, also called Antibody No: 1; parental antibody) VH: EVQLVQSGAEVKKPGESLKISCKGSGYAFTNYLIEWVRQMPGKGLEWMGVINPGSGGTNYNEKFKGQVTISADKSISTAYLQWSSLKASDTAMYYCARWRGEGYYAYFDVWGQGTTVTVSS VL: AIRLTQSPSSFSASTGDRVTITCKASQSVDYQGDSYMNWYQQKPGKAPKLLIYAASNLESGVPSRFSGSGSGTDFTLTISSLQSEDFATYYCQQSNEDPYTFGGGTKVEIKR for me?
-- reply 717

-- ask Can you look up the measured ELISA value (wash 3x every hour for 12 HRS) of Antibody No: 23 (antibody, human IgG1, kappa, N297A, V domains shown, VK A50S; HEK293F supernatant) VH: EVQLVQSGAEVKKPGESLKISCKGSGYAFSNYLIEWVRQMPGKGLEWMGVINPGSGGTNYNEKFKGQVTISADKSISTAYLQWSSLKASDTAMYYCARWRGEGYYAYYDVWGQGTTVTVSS VL: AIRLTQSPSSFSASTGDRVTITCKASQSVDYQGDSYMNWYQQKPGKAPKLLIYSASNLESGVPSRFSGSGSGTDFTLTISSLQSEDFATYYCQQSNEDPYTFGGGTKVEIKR for me?
-- reply 1250

-- ask Can you look up the measured ELISA value (wash 3x every hour for 12 HRS) of Antibody No: 14 (antibody, human IgG1, kappa, N297A, V domains shown, VH N58Y; VK A50T; HEK293F supernatant) VH: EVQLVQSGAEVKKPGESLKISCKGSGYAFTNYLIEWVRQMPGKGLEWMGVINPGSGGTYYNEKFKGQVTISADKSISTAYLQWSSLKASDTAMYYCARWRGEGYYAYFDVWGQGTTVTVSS VL: AIRLTQSPSSFSASTGDRVTITCKASQSVDYQGDSYMNWYQQKPGKAPKLLIYTASNLESGVPSRFSGSGSGTDFTLTISSLQSEDFATYYCQQSNEDPYTFGGGTKVEIKR for me?
-- reply 2540

-- ask Can you look up the measured ELISA value (wash 3x every hour for 12 HRS) of Antibody No: 32 (antibody, human IgG1, kappa, N297A, V domains shown, VK M33L; HEK293F supernatant) VH: EVQLVQSGAEVKKPGESLKISCKGSGYAFSNYLIEWVRQMPGKGLEWMGVINPGSGGTYYNEKFKGQVTISADKSISTAYLQWSSLKASDTAMYYCARWRGEGYYAYYDVWGQGTTVTVSS VL: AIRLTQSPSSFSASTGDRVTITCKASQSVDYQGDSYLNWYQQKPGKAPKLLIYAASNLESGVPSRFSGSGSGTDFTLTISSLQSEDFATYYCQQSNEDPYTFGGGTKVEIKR for me?
-- reply 3330

-- ask Can you look up the measured ELISA value (wash 3x every hour for 12 HRS) of Antibody No: 3 (antibody, human IgG1, kappa, N297A, V domains shown, VH WT; VK A50S; HEK293F supernatant) VH: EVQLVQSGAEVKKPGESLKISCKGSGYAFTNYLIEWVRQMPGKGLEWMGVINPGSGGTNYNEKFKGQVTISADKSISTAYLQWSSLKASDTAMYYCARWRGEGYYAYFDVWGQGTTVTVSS VL: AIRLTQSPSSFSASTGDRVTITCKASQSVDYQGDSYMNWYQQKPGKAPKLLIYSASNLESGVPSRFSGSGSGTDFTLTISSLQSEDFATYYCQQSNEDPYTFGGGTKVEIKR for me?
-- reply 1310
